Target: Adenosine kinase (Homo sapiens)
Test: Inhibitory concentration against adenosine kinase was determined
pIC50: −log10 of the molar value.
Label scheme for pIC50: lower than 8 is condition not met, 8 and above is condition met.

Problem: Reported pIC50 at or above 8? Nc1ncnc2nc(-c3ccc(N4CCC(COC5CCOCC5)CC4)nn3)cc(-c3cccc(Br)c3)c12
Result: condition met

Problem: Next compound: Nc1ncnc2nc(-c3ccc(N4CCC(CCOC5CCOCC5)CC4)nn3)cc(-c3cccc(Br)c3)c12
Result: condition not met

---

Species: Rattus norvegicus
Experiment: Effective dose to reduce pain in carregenin induced thermal hyperalgesia assay in rat was determined
Assay type: functional
experimental_readout: ED50 (µmol/kg)
Record the value in µmol/kg, omitting the unit from your answer.

Problem: Consider the compound shown here: Nc1ncnc2nc(-c3ccc(N4C[C@@H](O)[C@@H](O)C4)nc3)cc(-c3cccc(Br)c3)c12 What is its recorded ED50?
Result: 2

Problem: Next compound: CCO[C@H]1CN(c2ccc(-c3cc(-c4cccc(Br)c4)c4c(N)ncnc4n3)nn2)C[C@H]1OCC
Result: 3

Problem: Next compound: Nc1ncnc2nc(-c3ccc(N4CCC(=NOC5CCOCC5)CC4)nc3)cc(-c3cccc(Br)c3)c12
Result: 2

Problem: Next compound: Nc1ncnc2nc(-c3ccc(N4CCC[C@H]4CO)nn3)cc(-c3cccc(Br)c3)c12
Result: 10

Problem: Next compound: Nc1ncnc2nc(-c3ccc(N4CCC(COC5CCOCC5)CC4)nn3)cc(-c3cccc(Br)c3)c12
Result: 5

Problem: Next compound: Nc1ncnc2nc(-c3ccc(N4CCC(=NOC5CCOCC5)CC4)nn3)cc(-c3cccc(Br)c3)c12
Result: 2

Problem: Next compound: Nc1ncnc2nc(-c3ccc(N4CC5CC4CO5)nc3)cc(-c3cccc(Br)c3)c12 (stereo unspecified)
Result: 2

Problem: Next compound: Nc1ncnc2nc(-c3ccc(N4CCC5(CC4)COCO5)nc3)cc(-c3cccc(Br)c3)c12
Result: 2

Problem: Next compound: N#C[C@H]1CN(c2ccc(-c3cc(-c4cccc(Br)c4)c4c(N)ncnc4n3)cn2)C[C@H]1O
Result: 4

Problem: Next compound: Nc1ncnc2nc(-c3ccc(N4CCC(O)(C5CCOC5=O)CC4)nc3)cc(-c3cccc(Br)c3)c12 (stereo unspecified)
Result: 4

Problem: Next compound: CON=C1CCN(c2ccc(-c3cc(-c4cccc(Br)c4)c4c(N)ncnc4n3)nn2)CC1
Result: 13

---

Experiment: Effective dose to reduce locomotor side effects in animals was determined
Assay type: functional
I'd be grateful if you could share measured ED50 for these entries.
Record the value in µmol/kg, omitting the unit from your answer.

Problem: Consider the compound shown here: Nc1ncnc2nc(-c3ccc(N4CCC(CCOC5CCOCC5)CC4)nn3)cc(-c3cccc(Br)c3)c12 What is its recorded ED50?
Result: 9

Problem: Next compound: COCCOC1CCN(c2ccc(-c3cc(-c4cccc(Br)c4)c4c(N)ncnc4n3)nn2)CC1
Result: 10

Problem: Next compound: CCOC1CCN(c2ccc(-c3cc(-c4cccc(Br)c4)c4c(N)ncnc4n3)nn2)CC1
Result: 20

Problem: Next compound: C/C(=N/OC1CCOCC1)C1(O)CCN(c2ccc(-c3cc(-c4cccc(Br)c4)c4c(N)ncnc4n3)cn2)CC1
Result: 30

Problem: Next compound: Nc1ncnc2nc(-c3ccc(N4CCC(=NOC5CCOCC5)CC4)nc3)cc(-c3cccc(Br)c3)c12
Result: 10

Problem: Next compound: CON=C1CCN(c2ccc(-c3cc(-c4cccc(Br)c4)c4c(N)ncnc4n3)nn2)CC1
Result: 6

Problem: Next compound: Nc1ncnc2nc(-c3ccc(N4CCC5(CC4)COCO5)nc3)cc(-c3cccc(Br)c3)c12
Result: 6

Problem: Next compound: CCO[C@H]1CN(c2ccc(-c3cc(-c4cccc(Br)c4)c4c(N)ncnc4n3)nn2)C[C@H]1OCC
Result: 25

Problem: Next compound: Nc1ncnc2nc(-c3ccc(N4CCC(=NOC5CCOCC5)CC4)nn3)cc(-c3cccc(Br)c3)c12
Result: 7

Problem: Next compound: Nc1ncnc2nc(-c3ccc(N4CC5CC4CO5)nc3)cc(-c3cccc(Br)c3)c12 (stereo unspecified)
Result: 8

Problem: Next compound: Nc1ncnc2nc(-c3ccc(N4CCC(COC5CCOCC5)CC4)nn3)cc(-c3cccc(Br)c3)c12
Result: 5

---

Biological target: Adenosine kinase (Homo sapiens)
Experiment: Inhibitory concentration against adenosine kinase was determined in cell assay
experimental_readout: pIC50
Please keep in mind that pIC50 is minus log10 of the molar concentration; only the number is needed.

Problem: Consider the compound shown here: Nc1ncnc2nc(-c3ccc(N4CC5CC4CO5)nc3)cc(-c3cccc(Br)c3)c12 (centres undefined) What is its recorded pIC50?
Result: 7.71

Problem: Next compound: Nc1ncnc2nc(-c3ccc(N4C[C@@H](O)[C@@H](O)C4)nc3)cc(-c3cccc(Br)c3)c12
Result: 6.89

Problem: Next compound: CCOC1CCN(c2ccc(-c3cc(-c4cccc(Br)c4)c4c(N)ncnc4n3)nn2)CC1
Result: 7.29

Problem: Next compound: CON=C1CCN(c2ccc(-c3cc(-c4cccc(Br)c4)c4c(N)ncnc4n3)nn2)CC1
Result: 7.13

Problem: Next compound: Nc1ncnc2nc(-c3ccc(N4CCC(O)(C5CCOC5=O)CC4)nc3)cc(-c3cccc(Br)c3)c12 (centres undefined)
Result: 7.30

Problem: Next compound: Nc1ncnc2nc(-c3ccc(N4CCC[C@H]4CO)nn3)cc(-c3cccc(Br)c3)c12
Result: 6.81

Problem: Next compound: COCCOC1CCN(c2ccc(-c3cc(-c4cccc(Br)c4)c4c(N)ncnc4n3)nn2)CC1
Result: 7.09

Problem: Next compound: Nc1ncnc2nc(-c3ccc(N4CCC(COC5CCOCC5)CC4)nn3)cc(-c3cccc(Br)c3)c12
Result: 7.76

Problem: Next compound: C/C(=N/OC1CCOCC1)C1(O)CCN(c2ccc(-c3cc(-c4cccc(Br)c4)c4c(N)ncnc4n3)cn2)CC1
Result: 7.36

Problem: Next compound: Nc1ncnc2nc(-c3ccc(N4CCC(=NOC5CCOCC5)CC4)nn3)cc(-c3cccc(Br)c3)c12
Result: 7.28

Problem: Next compound: N#C[C@H]1CN(c2ccc(-c3cc(-c4cccc(Br)c4)c4c(N)ncnc4n3)cn2)C[C@H]1O
Result: 6.30

Problem: Next compound: CCO[C@H]1CN(c2ccc(-c3cc(-c4cccc(Br)c4)c4c(N)ncnc4n3)nn2)C[C@H]1OCC
Result: 7.39

Problem: Next compound: Nc1ncnc2nc(-c3ccc(N4CCC5(CC4)COCO5)nc3)cc(-c3cccc(Br)c3)c12
Result: 6.42

Problem: Next compound: Nc1ncnc2nc(-c3ccc(N4CCC(CCOC5CCOCC5)CC4)nn3)cc(-c3cccc(Br)c3)c12
Result: 7.05

---

Molecular target: Adenosine kinase (Homo sapiens, UniProt P55263)
Sequence (P55263 whole entry): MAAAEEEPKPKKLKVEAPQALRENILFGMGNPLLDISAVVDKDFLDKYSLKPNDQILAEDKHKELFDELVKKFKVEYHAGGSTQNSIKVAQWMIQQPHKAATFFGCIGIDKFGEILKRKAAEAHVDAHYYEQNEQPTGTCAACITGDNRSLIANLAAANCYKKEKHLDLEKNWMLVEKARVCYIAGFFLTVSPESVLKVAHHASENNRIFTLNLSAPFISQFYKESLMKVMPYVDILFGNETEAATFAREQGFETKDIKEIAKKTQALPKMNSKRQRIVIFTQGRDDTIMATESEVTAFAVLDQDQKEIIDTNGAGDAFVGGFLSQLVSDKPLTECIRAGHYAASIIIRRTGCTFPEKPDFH
Test: Inhibitory concentration against adenosine kinase was determined
experimental_readout: pIC50
Please keep in mind that pIC50 is minus log10 of the molar concentration; only the number is needed.

Problem: Form field: pIC50 recorded for Nc1ncnc2nc(-c3ccc(N4CCC(=NOC5CCOCC5)CC4)nn3)cc(-c3cccc(Br)c3)c12 with Adenosine kinase (Homo sapiens, UniProt P55263) (enter value)
Result: 8.15

Problem: Next molecule: Nc1ncnc2nc(-c3ccc(N4CCC[C@H]4CO)nn3)cc(-c3cccc(Br)c3)c12
Result: 7.79

Problem: Next molecule: CCO[C@H]1CN(c2ccc(-c3cc(-c4cccc(Br)c4)c4c(N)ncnc4n3)nn2)C[C@H]1OCC
Result: 8.14

Problem: Next molecule: CCOC1CCN(c2ccc(-c3cc(-c4cccc(Br)c4)c4c(N)ncnc4n3)nn2)CC1
Result: 7.98

Problem: Next molecule: Nc1ncnc2nc(-c3ccc(N4CCC(=NOC5CCOCC5)CC4)nc3)cc(-c3cccc(Br)c3)c12
Result: 8.00

Problem: Next molecule: C/C(=N/OC1CCOCC1)C1(O)CCN(c2ccc(-c3cc(-c4cccc(Br)c4)c4c(N)ncnc4n3)cn2)CC1
Result: 7.50

Problem: Next molecule: Nc1ncnc2nc(-c3ccc(N4CC5CC4CO5)nc3)cc(-c3cccc(Br)c3)c12 (centres undefined)
Result: 8.12

Problem: Next molecule: CON=C1CCN(c2ccc(-c3cc(-c4cccc(Br)c4)c4c(N)ncnc4n3)nn2)CC1
Result: 7.73

Problem: Next molecule: COCCOC1CCN(c2ccc(-c3cc(-c4cccc(Br)c4)c4c(N)ncnc4n3)nn2)CC1
Result: 7.82

---

Target: Adenosine kinase (Homo sapiens, UniProt P55263)
Test: Inhibitory concentration against adenosine kinase was determined
experimental_readout: pIC50
Please keep in mind that pIC50 is minus log10 of the molar concentration; only the number is needed.

Problem: Consider the molecule shown here: Nc1ncnc2nc(-c3ccc(N4CCC5(CC4)COCO5)nc3)cc(-c3cccc(Br)c3)c12 What is its recorded pIC50?
Result: 8.08

Problem: Next molecule: N#C[C@H]1CN(c2ccc(-c3cc(-c4cccc(Br)c4)c4c(N)ncnc4n3)cn2)C[C@H]1O
Result: 8.12

Problem: Next molecule: Nc1ncnc2nc(-c3ccc(N4C[C@@H](O)[C@@H](O)C4)nc3)cc(-c3cccc(Br)c3)c12
Result: 8.19

Problem: Next molecule: Nc1ncnc2nc(-c3ccc(N4CCC(O)(C5CCOC5=O)CC4)nc3)cc(-c3cccc(Br)c3)c12 (centres undefined)
Result: 8.09
